Some variants, each annotated with its measured normalized RNA/DNA level with ligand (log10).
B1: library; a variant is named by its letters at N, in order (parent)
chain: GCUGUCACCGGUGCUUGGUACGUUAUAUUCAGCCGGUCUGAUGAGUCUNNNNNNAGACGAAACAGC

# Variants of: B1
# experimentalDetails: normalized RNA/DNA level with ligand (relative to sTRSVctl = 100) (log10 (% of sTRSVctl)); HEK293T overexpressing SLC46A1; ligand concentration (+) RNA-Seq: 6 mM; higher = less ribozyme self-cleavage, higher mRNA level
# particulars: with (6R,S)-folinic acid; ligand present: yes
When you answer, write just the number.

CUUCCG | 2.06

Can you look up the measured normalized RNA/DNA level with ligand (log10) of UCCCUA for me? 2

Same question, UACAGU this time 1.99

Same question, AGGAAA this time 1.99

Same question, AUUAGG this time 2.01

Same question, UCUCAA this time 1.98

Same question, UUAUAG this time 1.99

Same question, AGAUCG this time 2.01

Same question, GCAUUU this time 2.04

Same question, GACGGC this time 2.04

Same question, UCCUCG this time 2

Same question, AAGACU this time 2.02

Same question, UCACAU this time 2.02

Same question, UACAGA this time 1.99
